tested on: TK-10 renal; assay: NCI tumour cell line growth inhibition, 48 h; in the data active means GI50 below about 0.43 µM; inactive means the rest
Returns: one label drawn from active, inactive

[[record]]
molecule = "O=c1ccn(C2CC(O)C(CO)O2)c(=O)[nH]1 (centres undefined)"
discrete_label = "inactive"

[[record]]
molecule = "COc1cccc(C2=C(c3c(C)n(C)c4ccccc34)C(=O)NC2=O)c1"
discrete_label = "inactive"

[[record]]
molecule = "COC(=O)[C@@]12OC[C@]34[C@H]([C@@H](O)[C@@H]1O)[C@@]1(C)[C@H](O)C(=O)C=C(C)[C@@H]1C[C@H]3OC(=O)C(OC(C)=O)[C@@H]24 (some centres undefined)"
discrete_label = "active"

[[record]]
molecule = "C[C@]12CCc3sc(NCCc4ccccc4)nc3C1=CC[C@@H]1[C@@H]2CC[C@]2(C)C(=O)CC[C@@H]12"
discrete_label = "inactive"

[[record]]
molecule = "O=c1cc(-c2ccccc2F)[nH]c2ccc(N3CCCC3)cc12"
discrete_label = "inactive"


What is the recorded call for this molecule in the test? CN[C@H](C#Cc1c(F)ccc2c1/C(=C/c1[nH]ccc1OC)C(=O)N2)CO
active

What do you have for COc1ccc(/C=C/C(=O)c2ccc(O)c(CN3CCN(c4cc5c(cc4F)c(=O)c(C(=O)O)cn5C4CC4)CC3)c2)cc1 ?
inactive

What do you have for COc1cccc2c1ccc1nc3cccc(C(=O)N[C@H](C)CN(C)C)c3nc12 ?
active

What do you have for C=CCC1(O)c2ccccc2C(=O)c2c(NCCN(CC(=O)OCC)CC(=O)OCC)cccc21 (centres undefined) ?
inactive

What do you have for CCC1CN2C(=N1)c1ccccc1-c1cc(Cl)ccc12 (centres undefined) ?
inactive

What do you have for Nc1nc(N)c2nc(CNc3ccc(C(=O)NC(CC(=O)O)C(=O)O)cc3)cnc2n1 (centres undefined) ?
inactive
